molecular target: Receptor-type tyrosine-protein kinase FLT3 (Homo sapiens, UniProt P36888); also: in the data inactive means no Kd found up to 30 µM
Sequence (P36888 whole entry): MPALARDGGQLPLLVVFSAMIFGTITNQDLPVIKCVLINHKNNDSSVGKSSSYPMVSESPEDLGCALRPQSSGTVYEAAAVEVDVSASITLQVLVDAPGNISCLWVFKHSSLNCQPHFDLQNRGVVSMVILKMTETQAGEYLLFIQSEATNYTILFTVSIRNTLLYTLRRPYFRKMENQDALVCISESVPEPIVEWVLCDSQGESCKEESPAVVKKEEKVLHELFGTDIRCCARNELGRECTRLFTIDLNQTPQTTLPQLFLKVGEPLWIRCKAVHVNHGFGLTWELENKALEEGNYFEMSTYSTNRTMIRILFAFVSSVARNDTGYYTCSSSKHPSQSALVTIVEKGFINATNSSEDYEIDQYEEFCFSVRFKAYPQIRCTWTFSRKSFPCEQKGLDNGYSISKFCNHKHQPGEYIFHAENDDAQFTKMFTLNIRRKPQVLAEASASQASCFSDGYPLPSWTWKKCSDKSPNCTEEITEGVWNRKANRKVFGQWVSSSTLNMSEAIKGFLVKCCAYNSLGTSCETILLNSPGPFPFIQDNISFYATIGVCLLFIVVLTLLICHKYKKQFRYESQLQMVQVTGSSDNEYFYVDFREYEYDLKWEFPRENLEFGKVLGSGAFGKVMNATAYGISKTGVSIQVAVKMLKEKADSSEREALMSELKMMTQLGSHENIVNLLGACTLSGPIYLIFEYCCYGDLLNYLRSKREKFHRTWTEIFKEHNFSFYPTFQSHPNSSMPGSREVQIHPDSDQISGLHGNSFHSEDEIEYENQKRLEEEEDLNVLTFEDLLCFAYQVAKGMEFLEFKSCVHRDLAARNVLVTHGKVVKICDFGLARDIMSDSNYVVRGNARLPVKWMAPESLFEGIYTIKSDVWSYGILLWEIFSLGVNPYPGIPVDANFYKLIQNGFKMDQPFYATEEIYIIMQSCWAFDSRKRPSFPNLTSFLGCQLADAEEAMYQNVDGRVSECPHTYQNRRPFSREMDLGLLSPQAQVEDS
Activity calls are given as the source filed them.
Output constraint: value belongs to active, inactive

compound | labelValue
CC(C)CC(=O)Nc1[nH]nc2c1CN(C(=O)C1CCN(C)CC1)C2(C)C | inactive
COc1ccc2c(OCc3nnc4ccc(-c5ccccc5)nn34)ccnc2c1 | inactive
S=C(NCc1ccc2c(c1)OCO2)N1CCN(c2ncnc3c2oc2ccccc23)CC1 | inactive
O=c1[nH]c([C@@H]2CCCN2)nc2c1oc1ccc(Cl)cc12 | inactive
COCCN1CCN(Cc2ccc(-c3n[nH]c4c3C(=O)c3c(NC(=O)NN5CCOCC5)cccc3-4)cc2)CC1 | active

Ask: Fill in: this test's call for `CNC(=O)c1cccc(-c2ccc3c(N4CCOC[C@@H]4C)nc(N4CCOC[C@@H]4C)nc3n2)c1` is ___
Reply: inactive

Ask: Fill in: this test's call for `Cc1c(Cn2c(C)nc3c(C(=O)O)cc(N4CCOCC4)cc32)cccc1C(F)(F)F` is ___
Reply: inactive

Ask: Fill in: this test's call for `Cc1cc(Nc2nc(N[C@@H](C)c3ncc(F)cn3)ncc2Cl)n[nH]1` is ___
Reply: active

Ask: Fill in: this test's call for `Cn1c(=O)c(F)c(Nc2ccc(I)cc2F)c2c(=O)n(C[C@@H](O)CO)cnc21` is ___
Reply: inactive

Ask: Fill in: this test's call for `C#Cc1cccc(Nc2ncnc3cc4c(cc23)OCCOCCOCCO4)c1` is ___
Reply: inactive

Ask: Fill in: this test's call for `NC(=O)c1ccc(N(C(N)=O)c2c(F)cccc2F)nc1-c1ccc(F)cc1F` is ___
Reply: inactive

* * *

molecular target: Serine/threonine-protein kinase SIK2 (Homo sapiens, UniProt Q9H0K1); also: in the data inactive means no Kd found up to 30 µM
Sequence (Q9H0K1 whole entry): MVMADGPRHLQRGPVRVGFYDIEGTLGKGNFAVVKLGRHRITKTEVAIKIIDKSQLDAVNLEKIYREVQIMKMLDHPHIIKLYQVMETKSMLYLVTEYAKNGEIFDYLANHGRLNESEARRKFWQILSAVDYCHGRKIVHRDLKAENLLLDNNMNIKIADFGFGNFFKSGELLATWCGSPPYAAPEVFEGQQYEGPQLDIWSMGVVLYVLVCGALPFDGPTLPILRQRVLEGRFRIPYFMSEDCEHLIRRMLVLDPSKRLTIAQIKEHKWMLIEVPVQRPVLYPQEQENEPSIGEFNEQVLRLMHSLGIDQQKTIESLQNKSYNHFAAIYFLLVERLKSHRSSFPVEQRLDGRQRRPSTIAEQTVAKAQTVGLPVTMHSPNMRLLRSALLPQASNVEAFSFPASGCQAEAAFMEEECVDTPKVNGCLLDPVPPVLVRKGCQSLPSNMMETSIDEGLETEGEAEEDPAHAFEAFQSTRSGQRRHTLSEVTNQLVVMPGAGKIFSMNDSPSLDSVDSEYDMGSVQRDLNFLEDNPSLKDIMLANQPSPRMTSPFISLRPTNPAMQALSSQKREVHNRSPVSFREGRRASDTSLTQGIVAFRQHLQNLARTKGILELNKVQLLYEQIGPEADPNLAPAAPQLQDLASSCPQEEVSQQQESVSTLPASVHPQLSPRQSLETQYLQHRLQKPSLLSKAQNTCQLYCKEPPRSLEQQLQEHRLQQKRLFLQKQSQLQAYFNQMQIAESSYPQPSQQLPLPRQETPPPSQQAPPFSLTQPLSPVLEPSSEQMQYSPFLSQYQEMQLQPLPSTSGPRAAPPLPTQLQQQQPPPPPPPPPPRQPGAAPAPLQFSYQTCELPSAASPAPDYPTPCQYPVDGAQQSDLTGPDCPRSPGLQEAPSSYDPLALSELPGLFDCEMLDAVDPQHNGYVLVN
Calls of active or inactive are those of the source.
Output constraint: value belongs to active, inactive

For orientation, consider the following solved cases.
compound | labelValue
COc1cc2ncnc(Nc3ccc(O)cc3)c2cc1OC [WHI-P131] | inactive
S=C(NCc1ccc2c(c1)OCO2)N1CCN(c2ncnc3c2oc2ccccc23)CC1 [AMUVATINIB] | inactive
NC[C@@](O)(c1ccc(Cl)cc1)c1ccc(-c2cn[nH]c2)cc1 [AT-13148] | inactive
N#CCNC(=O)c1ccc(-c2ccnc(Nc3ccc(N4CCOCC4)cc3)n2)cc1 [MOMELOTINIB] | active
C=CCn1c(=O)c2cnc(Nc3ccc(N4CCN(C)CC4)cc3)nc2n1-c1cccc(C(C)(C)O)n1 [ADAVOSERTIB] | inactive

Ask: Fill in: this test's call for C=CC(=O)Nc1cccc(Nc2nc(Nc3ccc(N4CCN(C(C)=O)CC4)cc3OC)ncc2C(F)(F)F)c1 [ROCILETINIB] is ___
Reply: inactive

Ask: Fill in: this test's call for CNC(=O)c1cccc(-c2ccc3c(N4CCOC[C@@H]4C)nc(N4CCOC[C@@H]4C)nc3n2)c1 [VISTUSERTIB] is ___
Reply: inactive

Ask: Fill in: this test's call for Cc1c(NC(=O)OC[C@@H]2COCCN2)cn2ncnc(Nc3ccc4c(cnn4Cc4cccc(F)c4)c3)c12 [AC-480] is ___
Reply: inactive

Ask: Fill in: this test's call for Cn1c(=O)c(F)c(Nc2ccc(I)cc2F)c2c(=O)n(C[C@@H](O)CO)cnc21 [TAK-733] is ___
Reply: inactive

Taken from ChEMBL document CHEMBL3991601.
